Target: T1, TNFR1 (Homo sapiens, UniProt P19438)
T1 chain: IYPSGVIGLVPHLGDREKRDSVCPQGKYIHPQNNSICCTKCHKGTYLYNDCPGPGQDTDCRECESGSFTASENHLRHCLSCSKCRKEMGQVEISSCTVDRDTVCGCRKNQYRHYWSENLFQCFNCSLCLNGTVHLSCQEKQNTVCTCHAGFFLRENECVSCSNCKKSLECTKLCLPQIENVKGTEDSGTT
Experiment: yeast display SC50
apparent Kd (screen) overview
Write the value in nM as a bare number.

binder	apparent Kd (screen) (nM)
K17S (designed binder) SMEEEVEKAAKEYEKKSKEAIEKHLEKLKAKDKEAAERFLKELEEAAKEYAKDEAKTMSEEEAKRRAKKYKEKVLLSELSEEEQKEIKEAEEKLVRTILKYVEEAAK	1.27
L79E (designed binder) SMEEEVEKAAKEYEKKKKEAIEKHLEKLKAKDKEAAERFLKELEEAAKEYAKDEAKTMSEEEAKRRAKKYKEKVLLSEESEEEQKEIKEAEEKLVRTILKYVEEAAK	18.3
T57W (designed binder) SMEEEVEKAAKEYEKKKKEAIEKHLEKLKAKDKEAAERFLKELEEAAKEYAKDEAKWMSEEEAKRRAKKYKEKVLLSELSEEEQKEIKEAEEKLVRTILKYVEEAAK	0.304

Let us move to another entry and its apparent Kd (screen).
Query string: Sample A35E (designed binder) SMEEEVEKAAKEYEKKKKEAIEKHLEKLKAKDKEEAERFLKELEEAAKEYAKDEAKTMSEEEAKRRAKKYKEKVLLSELSEEEQKEIKEAEEKLVRTILKYVEEAAK — what was its apparent Kd (screen)?
Result string: 2.25
